Assignment: determine reported pKi for the given compounds.
Molecular target: mu opioid receptor (Rattus norvegicus, UniProt P33535)
Sequence (P33535 whole entry): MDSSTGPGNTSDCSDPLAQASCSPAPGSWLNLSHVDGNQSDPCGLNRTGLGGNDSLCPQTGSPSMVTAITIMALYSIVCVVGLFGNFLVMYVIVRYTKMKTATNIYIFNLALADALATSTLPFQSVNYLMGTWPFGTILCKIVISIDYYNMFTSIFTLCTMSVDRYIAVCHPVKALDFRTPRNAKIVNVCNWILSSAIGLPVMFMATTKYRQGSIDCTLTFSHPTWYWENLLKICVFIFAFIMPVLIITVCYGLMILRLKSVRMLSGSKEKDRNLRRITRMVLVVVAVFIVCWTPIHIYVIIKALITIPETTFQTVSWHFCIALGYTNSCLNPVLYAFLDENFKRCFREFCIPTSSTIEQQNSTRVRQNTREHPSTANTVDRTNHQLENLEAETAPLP
Test: Rat brain mu opioid receptor binding assay ([3H]DAMGO)
Conditions: MOR Ki, Rat mu opioid receptor binding constant; rat forebrain membranes, ~0.8 nM [3H]DAMGO
Numbers only, as −log10 of the molar value.

# annotated cases, reported pKi shown
>>> val("NC(=NO)c1ccc2c(c1)Oc1ccccc1C2=C1CC2CCC(C1)N2 [Cpd 24]")
6.21
>>> val("CN(Cc1ccccc1)C(=O)c1ccc2c(c1)Oc1ccccc1C2=C1CC2CCC(C1)N2 [Cpd 52]")
5.74
>>> val("CCN(CC)C(=N)c1ccc2c(c1)Oc1ccccc1C2=C1CC2CCC(C1)N2 [Cpd 9]")
5.45
>>> val("COc1cccc(C2CCCN(C(=O)c3ccc4c(c3)Oc3ccccc3C4=C3CC4CCC(C3)N4)C2)c1 (centres unmarked) [Cpd 65]")
6.50
>>> val("N=C(c1ccc2c(c1)Oc1ccccc1C2=C1CC2CCC(C1)N2)N1CCCCC1 [Cpd 43]")
5.27

Lab note: each compound below needs its pKi filled in.
1. O=c1[nH]c(-c2ccc3c(c2)Oc2c(O)cccc2C3=C2CC3CCC(C2)N3)no1 [Cpd 134]
2. O=C(NC(CO)Cc1ccccc1)c1ccc2c(c1)Oc1ccccc1C2=C1CC2CCC(C1)N2 (single isomer, unassigned) [Cpd 15]

Return:
1: 8.70; 2: 6.38

----------
Molecular target: mu opioid receptor (Rattus norvegicus)
Experiment: Rat brain mu opioid receptor binding assay ([3H]DAMGO)
Conditions: MOR Ki, Rat mu opioid receptor binding constant; rat forebrain membranes, ~0.8 nM [3H]DAMGO
ASSAY_METRIC: log10 of Ki (log10 of the value in nM)
Response schema: value (number) is log10 of Ki in units of nM.

# annotated cases, reported log10 of Ki shown
>>> val("COC(=O)[C@H](CO)NC(=O)c1ccc2c(c1)Oc1ccccc1C2=C1CC2CCC(C1)N2")
2.98
>>> val("S=c1[nH]c(-c2ccc3c(c2)Oc2ccccc2C3=C2CC3CCC(C2)N3)no1")
3.01

Lab note: each compound below needs its log10 of Ki filled in.
1. CN(C(=O)c1ccc2c(c1)Oc1ccccc1C2=C1CC2CCC(C1)N2)C1CCCCC1
2. CN(C(=O)c1ccc2c(c1)Oc1ccccc1C2=C1CC2CCC(C1)N2)c1ccccc1
3. c1cncc(-c2ccc3c(c2)Sc2ccccc2C3=C2CC3CCC(C2)N3Cc2ncc[nH]2)c1
4. Nc1ccc(-c2ccc3c(c2)Oc2ccccc2C3=C2CC3CCC(C2)N3)cc1

Return:
1. 3.05
2. 3.06
3. 1.78
4. 3.12

Lab note: each compound below needs its log10 of Ki filled in.
1. CC(=O)Nc1ccc(-c2ccc3c(c2)Oc2ccccc2C3=C2CC3CCC(C2)N3)cc1
2. O=C(NCCc1ccccc1)c1ccc2c(c1)Oc1ccccc1C2=C1CC2CCC(C1)N2

Return:
1. 3.44
2. 2.64

----------
Molecular target: delta opioid receptor (Rattus norvegicus, UniProt P33533)
Sequence (P33533 whole entry): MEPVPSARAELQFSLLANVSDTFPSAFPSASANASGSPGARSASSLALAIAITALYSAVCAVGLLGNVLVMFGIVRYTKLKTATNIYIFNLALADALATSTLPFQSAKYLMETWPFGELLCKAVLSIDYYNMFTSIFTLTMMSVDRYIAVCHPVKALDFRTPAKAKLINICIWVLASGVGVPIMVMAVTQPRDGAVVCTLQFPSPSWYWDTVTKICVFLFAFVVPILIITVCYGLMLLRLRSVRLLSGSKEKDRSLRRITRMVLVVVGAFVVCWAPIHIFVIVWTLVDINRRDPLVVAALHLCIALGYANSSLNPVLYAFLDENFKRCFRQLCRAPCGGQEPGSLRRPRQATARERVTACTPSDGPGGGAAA
Assay: Rat brain delta opioid receptor binding assay ([3H]DPDPE)
Conditions: Rat delta opioid receptor binding constant; rat forebrain membranes, ~4 nM [3H]DPDPE; read-out: DOR Ki
ASSAY_METRIC: Ki (nM)
One number for each entry, in nM.

Lab note: each compound below needs its Ki filled in.
1. O=c1[nH]c(-c2ccc3c(c2)Oc2ccccc2C3=C2CC3CCC(C2)N3)no1 [Cpd 92]
2. N#Cc1ccc2c(c1)Oc1ccccc1C2=C1CC2CCC(C1)N2
3. COC[C@H](Cc1ccccc1)NC(=O)c1ccc2c(c1)Oc1ccccc1C2=C1CC2CCC(C1)N2
4. O=c1[nH]c(-c2ccc3c(c2)Oc2ccccc2C3=C2CC3CCC(C2)N3)no1 [Cpd 91]
5. O=C(NCc1ccccc1)c1ccc2c(c1)Oc1ccccc1C2=C1CC2CCC(C1)N2

Return:
1: 0.07; 2: 2710; 3: 142; 4: 0.76; 5: 456

Lab note: each compound below needs its Ki filled in.
1. O=C(c1ccc2c(c1)Oc1ccccc1C2=C1CC2CCC(C1)N2)N(CC(F)(F)F)CC(F)(F)F
2. COc1cccc2c1Oc1cc(-c3cccnc3)ccc1C2=C1CC2CCC(C1)N2
3. c1ccc2c(c1)Oc1cc(-c3nnn[nH]3)ccc1C2=C1CC2CCC(C1)N2

Return:
939
5.7
0.5

Lab note: each compound below needs its Ki filled in.
1. O=C(O)c1ccc2c(c1)Oc1ccccc1C2=C1CC2CCC(C1)N2
2. COC(=O)c1ccc2c(c1)Oc1ccccc1C2=C1CC2CCC(C1)N2
3. CN(C)C(=O)CN(C)C(=O)c1ccc2c(c1)Oc1ccccc1C2=C1CC2CCC(C1)N2
4. O=C(NC1CCC(c2ccccc2)CC1)c1ccc2c(c1)Oc1ccccc1C2=C1CC2CCC(C1)N2 (stereo not drawn)
5. COc1cccc2c1Oc1cc(-c3ccncc3)ccc1C2=C1CC2CCC(C1)N2

Return:
216
1010
8.5
247
106

Lab note: each compound below needs its Ki filled in.
1. O=C(NCCO)c1ccc2c(c1)Oc1ccccc1C2=C1CC2CCC(C1)N2
2. O=C(NC1CCC(C(F)(F)F)CC1)c1ccc2c(c1)Oc1ccccc1C2=C1CC2CCC(C1)N2 (stereo not drawn)

Return:
1. 106
2. 309
